Recorded values, source patent US20250027068.

target: pooled human IgG (human IgG1,2,3 and 4)
measurement.kind: Enzyme Activity Endpoint Assay: IgG (ng/µL)
Numbers only, in ng/µL.

Worked cases, Enzyme Activity Endpoint Assay: IgG given:
[[record]]
protein = "PRT-193 (protein) MANQEIRYSEVTPYHVTSVWTKGVTPPANFTQGEDVFHAPYVANQGWYDITKTFNGKDDLLCGAATAGNMLHWWFDQNKDQIKRYLEEHPEKQKINFNGEQMFDVKEAIDTKNHQLDSKLFEYFKEKAFPYLSTKHLGVFPDHVIDMFINGYRLSLTNHGPTPVKEGSKDPRGGIFDAVFTRGDQSKLLTSRHDFKEKNLKEISDLIKKELTEGKALGLSHTYANVRINHVINLWGADFDSNGNLKAIYVTDSDDKKLTIGDERIGMKKYFVGVNSAGKVAISAKEIKEDNIGAQVLGLFTLSTGQDSWNQTN"
measurement_kind = "Enzyme Activity Endpoint Assay: IgG"
number = 181

[[record]]
protein = "PRT-466 (protein) MITSVWTKGVTPPTDFIKGEDVFHAPYKAGQGWYDITKAFDGGDDLLCGAATAGNMLHWWFDQNKDQIERYLKEHPEKQKINFNGEQMFDVKEAIDTKDSQTNSELFNYFKEKAFPYLSTKHLGVFPDHVLDMFINGYRLSLTNHGPTPVKRQEKDPRGGIFDAVFGRGDQTKLLTSRHDFKEKTLNEISQLIKQELTEGKALGLSHTYANVRINHVINLWGADFDAEGNLEAIYVTDSDSNASIGMKKYFVGVNSAGKVAISAKEIKEDNIGAQVLGLFTLSTGQKIWNKTNLEHHHHHH"
measurement_kind = "Enzyme Activity Endpoint Assay: IgG"
number = 161

[[record]]
protein = "PRT-677 (protein) MQITSVWTKGVIPPTMDQFRYNNYDVFHAPYLPHQGWYDITKTFDGGDNLLCGAATAGNMLHWWFDQNKEYIENYLKKYPEKQKIIFNNQELFDLRKAINTKDSQTNSELFNYFRDKAFGNLSARQKGVMPDLVLDMFINGYYLNLFKTQSTDVNRPNDTRDKRGGFFDHVFGRGDQTKLLTARHDLYNGGLSDISQLIKQELQSGKALAISHTYGNVSSSHVINLWGADFDAEGNLEAIYVTDSDDRSSIGMKKYYVGINASGKVAISAKKIEGENVGAQVLGLFTLSSGKEIWKKLSLEHHHHHH"
measurement_kind = "Enzyme Activity Endpoint Assay: IgG"
number = 0


List Enzyme Activity Endpoint Assay: IgG for every entry below, keeping the order given.
1. PRT-682 (protein) MQITSVWTKGVTPLTPEQFRNNNEDVIHAPYLANQGWYDITKTFNGKDNLLCGAATAGNMLHWWFDQNKTEIEAYLKKHPEKQKIIFNNQELFDLKKAIDTKDSQTNSQLFNYFRDKAFPNLSARQLGVMPDLVLDMFINGYYLNVFKTQSTDVNRPYQDKDKRGGIFDAVFTRGDQTTLLTSRHDLKNKGLNEISDIIKQELTEGKALALSHTYANVSISHVINLWGADFNAEGNLEAIYVTDSDANASIGMKKYFVGVNAHGKVAISAKKIEGENIGAQVLGLFTLSSGKDIWQKLSLEHHHHHH
2. PRT-468 (protein) MITSVWTKGVTPPTDFIKGEDVFHAPYKAGQGWYDITKAFDGGDDLLCGAATAGNMLHWWFDQNKDQIERYLKEHPEKQKINFNGEQMFDVKEAIDTKDSQTNSELFNYFKEKAFPYLSTKHLGVFPDHVLDMFINGYRLSLTNHGPTPVKEGSKDPRGGIFDAVFTRGDQSKLLTSRHDLKNKTLNEISQLIKQELTEGKALGLSHTYANVRINHVINLWGADFDAEGNLEAIYVTDSDSNASIGMKKYFVGVNSAGKVAISAKEIKEDNIGAQVLGLFTLSTGQDIWNQTNLEHHHHHH
3. PRT-190 (protein) MANQEIRYSEVTPYHVTSVWTKGVTPPDHDFRKIVDGEDVFHAPYVANQGWYDITKTFNGKDDLLCGAATAGNMLHWWFDQNKDQIKRYLEEHPEKQKINFNGEQMFDVKEAIDTKNHQLDSKLFEYFKEKAFPYLSTKHLGVFPDHVIDMFINGYRLSLTNHGPTPVKEGSKDPRGGIFDAVFTRGDQSKLLTSRHDFKEKNLKEISDLIKKELTEGKALGLSHTYANVRINHVINLWGADFDSNGNLKAIYVTDSDSNASIGMKKYFVGVNSAGKVAISAKEIKEDNIGAQVLGLFTLSTGQDSWNQTN
4. PRT-176 (protein) MANQEIRYSEVTPYHITSVWTKGVTPPTDFIKGEDVFHAPYKAHQGWYDITKTFNGGDDLLCGAATAGNMLHWWFDQNKTQIEAYLKKHPEKQKINFNGEQMFDVKEAIDTKNSQTNSELFNYFKEKAFPYLSTKHLGVFPDHVIDMFINGYRLSLTNHGPTPVKRQTKDPRGGIFDAVFGRGDQTKLLTSRHDFKEKTLNDISQLIKQELQSGKALGLSHTYANVRINHVINLWGADFDAEGNLEAIYVTDSDSNASIGMKKYFVGKNASGKVAISAKEIEDENIGAQVLGLFTLSTGKKSWEKTN
5. PRT-99 (protein) MANQEIRYSEVTPYHVTSVWTKGVTPPAKFTQGEDVFHAPYVANQGWYDITKTFNGKDDLLCGAATAGNMLHWWFDQNKEKIEAYLKKHPDKQKIMFGDQELLDVRKVINTKGDQTNSELFNYFRDKAFPGLSARRIGVMPDLVLDMFINGYYLNVYKTQTTDVNRTYQEKDRRGGIFDAVFTRGDQSKLLTSRHDFKEKNLKEISDLIKKELTEGKALGLSHTYANVRINHVINLWGADFDSNGNLKAIYVTDSDSNASIGMKKYFVGVNSAGKVAISAKEIKEDNIGAQVLGLFTLSTGQDIWNQTN

Outgoing:
[0, 115, 76, 0, 0]
